Known TGI of a selection of compounds
System: MCF7 breast
method summary: NCI tumour cell line growth inhibition, 48 h

# smiles code, TGI
measured = [
    ("O=Cc1ccc(OCc2cccc(COc3ccc(/C=N\\Nc4ccc([N+](=O)[O-])cc4[N+](=O)[O-])cc3)n2)cc1", "> 100 µM"),
    ("Oc1ccccc1C(Sc1nc2ccccc2s1)Sc1nc2ccccc2s1", "> 100 µM"),
    ("Oc1c(CN2CCOCC2)ccc2cccnc12", "> 10 µM"),
    ("CCOC(=O)CNc1c(OCc2ccccc2)c(=O)c1=O", "> 100 µM"),
]

---

Test system: PC-3 prostate
method summary: NCI tumour cell line growth inhibition, 48 h
This listing pairs molecules with measured TGI.
endpoint name: TGI (µM)

# molecule, unit, qualifier symbol, value measured
measured = [
    ("C(=Nc1ccc(-c2nc3ccccc3[nH]2)cc1)c1cccs1", "µM", ">", 100),
    ("CC1OC(OC2C(O[C@H]3CC[C@@]4(C)C(=CC[C@H]5[C@@H]6C[C@@H]7O[C@]8(CC[C@@H](CO)CO8)[C@@H](C)[C@@H]7[C@@]6(C)CC[C@@H]54)C3)OC(CO)C(O)C2OC2OC(CO)C(O)C(O)C2O)C(O)C(O)C1O (stereo partly specified)", "µM", "=", 3.33),
    ("O=C1/C(=N/O)Cc2c(Br)ccc(Br)c21", "µM", ">", 100),
    ("COc1ccccc1CNCCCN1C(=O)c2ccc3c4c(ccc(c24)C1=O)C(=O)N(CCCOCCCCOCCCN)C3=O", "µM", "=", 5.17),
    ("CN1C(=O)c2cccc3cc([N+](=O)[O-])cc(c23)C1=O", "µM", ">", 10),
    ("O=C(NNC(=S)Nc1cccc(Cl)c1)c1cc(-c2ccccc2)nc2ccccc12", "µM", "=", 29.3),
    ("Cc1ccc(/C=C2\\CCCc3ccccc3C2=O)cc1", "µM", ">", 100),
    ("CON(C)C(=O)CNC(=O)OCC1c2ccccc2-c2ccccc21", "µM", ">", 100),
    ("CCN(CC)C(=S)N/N=C(/C)c1cccc(/C(C)=N\\NC(=S)N(CC)CC)n1", "µM", "=", 17),
    ("O=C(N/N=C/c1ccccc1)c1c(-c2cccnc2)cnc2ccccc12", "µM", ">", 100),
    ("CCOC(=O)N/N=C(/N)c1cccc([N+](=O)[O-])c1", "µM", ">", 100),
    ("Cn1c2c(c3ccccc31)CC1c3c(c4ccccc4n3C)CC21 (stereo unspecified)", "µM", ">", 100),
    ("OCC(O)COCn1nncc1Cn1ncc2c(SCc3ccccc3)ncnc21 (stereo unspecified)", "µM", ">", 100),
    ("COCN(CCC1=CCCCC1)C(=O)OC", "µM", ">", 100),
    ("NN/C(=N\\S(=O)(=O)c1cc2ccccc2s1)Nc1ccc(Cl)cc1", "µM", "=", 62.4),
    ("C[C@@]12CC=C3c4nc(Nc5cccc(O)c5)sc4CC[C@]3(C)[C@H]1CC[C@]1(C)C(=O)CC[C@@H]21", "µM", "=", 7.02),
    ("O=C(N/N=C\\c1cccc2c([N+](=O)[O-])cccc12)Nc1ccccc1", "µM", "=", 32.7),
    ("Cc1cccc(N2CCN(C(=S)c3ccc4c(c3)OCO4)CC2)c1", "µM", ">", 100),
    ("CCOC(=O)/C=C(/C(=O)OCC)n1ccc(=O)n(Cc2cn(COCCOC(C)=O)nn2)c1=O", "µM", ">", 100),
    ("COc1cc2nc3cc([N+](=O)[O-])ccc3c(NCCCNCCO)c2cc1OC", "µM", "=", 0.483),
    ("Clc1nc(Cl)c(Cl)c(-c2ccccc2)n1", "µM", "=", 39.3),
    ("O=S(=O)(N=S(c1ccccc1)c1ccccc1)c1ccccc1", "µM", ">", 100),
    ("COc1cccc2c1C(=O)c1c(O)c3c(c(O)c1C2=O)C[C@@](O)(C(C)=O)C[C@@H]3OC1OC(C)C(O)C(N)C1Br (stereo partly specified)", "µM", "=", 1.03),
    ("CCOC(=O)C(=Cc1[nH]c2ccccc2c1-c1c[nH]c2ccccc12)C(=O)OCC", "µM", "=", 25),
    ("Cc1ccc(C(=O)CN(/C=C/C(=O)C(F)(F)F)c2ccc(S(N)(=O)=O)cc2)cc1", "µM", ">", 100),
    ("Oc1ccccc1C(Sc1nc2ccccc2s1)Sc1nc2ccccc2s1", "µM", ">", 100),
]
